Target: Autotaxin (Homo sapiens, UniProt Q13822)
Assay: Inhibition of recombinant human C-terminal FLAg-tagged ATX nucleotide pyrophosphate phosphatase activity expressed in baculovirus infected sf9 cells using pNP-TMP as substrate measured every 2 mins for 1 hr by fluorescence assay
Active and inactive are the calls of the source. The rule behind the calls is not given here.

ENTRY_SMILES | MEASURED_TARGET | inhibition
N#Cc1c(F)cc(NC(=O)c2cc(S(=O)(=O)N3CCOCC3)c(Cl)cc2Cl)cc1F | Autotaxin (Homo sapiens, UniProt Q13822) | inactive
O=S(=O)(c1cc(N(S(=O)(=O)c2cccc(F)c2)S(=O)(=O)c2cccc(F)c2)c(Cl)cc1Cl)N1CCOCC1 | Autotaxin (Homo sapiens, UniProt Q13822) | inactive
O=S(=O)(c1cc(CNc2cc(F)c(F)c(F)c2)c(Cl)cc1Cl)N1CCOCC1 | Autotaxin (Homo sapiens, UniProt Q13822) | inactive
O=S(=O)(c1cc(-c2nc3cc(F)c(F)cc3[nH]2)c(Cl)cc1Cl)N1CCOCC1 | Autotaxin (Homo sapiens, UniProt Q13822) | inactive
COc1cc(NC(=O)c2cc(S(=O)(=O)N3CCOCC3)c(Cl)cc2Cl)cc(OC)c1OC | Autotaxin (Homo sapiens, UniProt Q13822) | inactive
O=C(Nc1cc(F)c(Cl)c(F)c1)c1cc(S(=O)(=O)N2CCOCC2)c(Cl)cc1Cl | Autotaxin (Homo sapiens, UniProt Q13822) | inactive
CN1CCN(S(=O)(=O)c2cc(C(=O)Nc3cc(F)c(F)c(F)c3)c(Cl)cc2Cl)CC1 | Autotaxin (Homo sapiens, UniProt Q13822) | inactive
CN1CCN(S(=O)(=O)c2cc(C(=S)Nc3cc(Cl)c(F)c(Cl)c3)c(Cl)cc2Cl)CC1 | Autotaxin (Homo sapiens, UniProt Q13822) | inactive
COC(=O)c1c(F)cc(NC(=O)c2cc(S(=O)(=O)N3CCOCC3)c(Cl)cc2Cl)cc1F | Autotaxin (Homo sapiens, UniProt Q13822) | inactive
O=C(Nc1cc(F)c(F)c(F)c1)c1cc(S(=O)(=O)N2CCOCC2)c(Cl)cc1Cl | Autotaxin (Homo sapiens, UniProt Q13822) | inactive
O=C(Nc1cc(F)c(F)c(F)c1Br)c1cc(S(=O)(=O)N2CCOCC2)c(Cl)cc1Cl | Autotaxin (Homo sapiens, UniProt Q13822) | inactive
O=C(Nc1cc(F)c(F)c(F)c1)c1cc(NN2CCOCC2)c(Cl)cc1Cl | Autotaxin (Homo sapiens, UniProt Q13822) | inactive
O=S(=O)(c1cc(C(=S)Nc2ccc(F)c(F)c2)c(Cl)cc1Cl)N1CCOCC1 | Autotaxin (Homo sapiens, UniProt Q13822) | inactive
CS(=O)(=O)N(C(=O)c1cc(NN2CCOCC2)c(Cl)cc1Cl)c1cc(F)c(F)c(F)c1 | Autotaxin (Homo sapiens, UniProt Q13822) | inactive
O=S(=O)(c1cc(C(=S)Nc2cccc(F)c2)c(Cl)cc1Cl)N1CCOCC1 | Autotaxin (Homo sapiens, UniProt Q13822) | inactive
O=S(=O)(Nc1cccc(F)c1)c1cc(S(=O)(=O)N2CCOCC2)c(Cl)cc1Cl | Autotaxin (Homo sapiens, UniProt Q13822) | inactive
O=C(Nc1cccc(F)c1)c1cc(S(=O)(=O)N2CCOCC2)c(Cl)cc1Cl | Autotaxin (Homo sapiens, UniProt Q13822) | inactive
O=S(=O)(Nc1cc(S(=O)(=O)N2CCOCC2)c(Cl)cc1Cl)c1cccc(F)c1 | Autotaxin (Homo sapiens, UniProt Q13822) | inactive
O=C(Nc1cc(Cl)c(F)c(Cl)c1)c1cc(S(=O)(=O)N2CCOCC2)c(Cl)cc1Cl | Autotaxin (Homo sapiens, UniProt Q13822) | inactive

====

Target: Autotaxin (Homo sapiens)
Assay: Inhibition of recombinant human C-terminal FLAg-tagged ATX lysophospholipase D activity expressed in baculovirus infected sf9 cells using FRET based FS-3 substrate measured every 2 mins for 1 hr by fluorescence assay
MEASURED_ATTRIBUTE: IC50

ENTRY_SMILES | MEASURED_ATTRIBUTE | REPORTED_MEASUREMENT
CN(C(=O)c1cc(S(=O)(=O)N2CCOCC2)c(Cl)cc1Cl)c1cccc(F)c1 | IC50 | > 1000 nM
O=S(=O)(c1cc(C(=S)Nc2ccc(F)c(F)c2)c(Cl)cc1Cl)N1CCOCC1 | IC50 | 70 nM
O=S(=O)(Nc1cccc(F)c1)c1cc(S(=O)(=O)N2CCOCC2)c(Cl)cc1Cl | IC50 | > 1000 nM
COc1cc(Cl)c(C(=O)Nc2cc(F)c(C(=O)O)c(F)c2)cc1S(=O)(=O)N1CCOCC1 | IC50 | > 1000 nM
COc1cc(NC(=O)c2cc(S(=O)(=O)N3CCOCC3)c(Cl)cc2Cl)cc(OC)c1OC | IC50 | > 1000 nM
O=S(=O)(c1cc(-c2nc3cc(F)c(F)cc3[nH]2)c(Cl)cc1Cl)N1CCOCC1 | IC50 | > 1000 nM
O=S(=O)(c1cc(N(S(=O)(=O)c2cccc(F)c2)S(=O)(=O)c2cccc(F)c2)c(Cl)cc1Cl)N1CCOCC1 | IC50 | > 1000 nM
O=S(=O)(Nc1cc(S(=O)(=O)N2CCOCC2)c(Cl)cc1Cl)c1cccc(F)c1 | IC50 | > 1000 nM
O=C(Nc1cc(Cl)c(Cl)c(Cl)c1)c1cc(S(=O)(=O)N2CCOCC2)c(Cl)cc1Cl | IC50 | > 1000 nM

====

Biological target: Lysophosphatidic acid receptor 2 (Homo sapiens)
Experiment: Antagonist activity at LPA2 receptor (unknown origin) expressed in MEF cells assessed as inhibition of LPA-induced intracellular calcium level up to 100 uM measured every 3.42 secs for 70 secs by Fura-2-AM dye based fluorescence assay
Format: functional, cell-based
The source made the active and inactive calls. No cut-off for these calls is given here.
MEASURED_ATTRIBUTE: inhibition

ENTRY_SMILES | REPORTED_MEASUREMENT
O=C(Nc1cc(F)c(Cl)c(F)c1)c1cc(S(=O)(=O)N2CCOCC2)c(Cl)cc1Cl | inactive
O=C(Nc1cc(F)c(F)c(F)c1Br)c1cc(S(=O)(=O)N2CCOCC2)c(Cl)cc1Cl | inactive
O=C(Nc1cc(Cl)c(F)c(Cl)c1)c1cc(S(=O)(=O)N2CCOCC2)c(Cl)cc1Cl | inactive
O=C(Nc1cc(F)c(F)c(F)c1)c1cc(S(=O)(=O)N2CCOCC2)c(Cl)cc1Cl | inactive
O=S(=O)(c1cc(C(=S)Nc2cc(F)c(F)c(F)c2)c(Cl)cc1Cl)N1CCOCC1 | inactive

====

Molecular target: Lysophosphatidic acid receptor 4 (Homo sapiens) (UniProt Q99677)
Sequence (Q99677 whole entry): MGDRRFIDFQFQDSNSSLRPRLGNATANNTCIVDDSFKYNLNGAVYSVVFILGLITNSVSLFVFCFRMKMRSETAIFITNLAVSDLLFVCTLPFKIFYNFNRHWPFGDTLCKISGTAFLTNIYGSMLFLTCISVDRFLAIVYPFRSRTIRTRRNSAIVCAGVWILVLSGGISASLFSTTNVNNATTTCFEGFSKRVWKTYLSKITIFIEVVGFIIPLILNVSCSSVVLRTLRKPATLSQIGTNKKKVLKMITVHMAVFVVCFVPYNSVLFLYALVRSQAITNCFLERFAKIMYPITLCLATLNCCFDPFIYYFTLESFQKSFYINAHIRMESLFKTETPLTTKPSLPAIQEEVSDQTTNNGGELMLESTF
Assay: Antagonist activity at LPA4 receptor (unknown origin) expressed in CHO cells assessed as inhibition of LPA-induced intracellular calcium level up to 100 uM measured every 3.42 secs for 70 secs by Fura-2-AM dye based fluorescence assay
Type: functional, cell-based
Activity calls are given as the source filed them. The rule behind the calls is not given here.

ENTRY_SMILES | MEASURED_TARGET | inhibition
O=C(Nc1cc(Cl)c(F)c(Cl)c1)c1cc(S(=O)(=O)N2CCOCC2)c(Cl)cc1Cl | Lysophosphatidic acid receptor 4 (Homo sapiens) (UniProt Q99677) | inactive
O=C(Nc1cc(F)c(Cl)c(F)c1)c1cc(S(=O)(=O)N2CCOCC2)c(Cl)cc1Cl | Lysophosphatidic acid receptor 4 (Homo sapiens) (UniProt Q99677) | inactive
O=C(Nc1cc(F)c(F)c(F)c1)c1cc(S(=O)(=O)N2CCOCC2)c(Cl)cc1Cl | Lysophosphatidic acid receptor 4 (Homo sapiens) (UniProt Q99677) | inactive
O=S(=O)(c1cc(C(=S)Nc2cc(F)c(F)c(F)c2)c(Cl)cc1Cl)N1CCOCC1 | Lysophosphatidic acid receptor 4 (Homo sapiens) (UniProt Q99677) | inactive
O=C(Nc1cc(F)c(F)c(F)c1Br)c1cc(S(=O)(=O)N2CCOCC2)c(Cl)cc1Cl | Lysophosphatidic acid receptor 4 (Homo sapiens) (UniProt Q99677) | inactive

====

Assay: Stability in mouse 4T1 cells assessed as parent compound remaining at 10 uM after 16 hrs by LC-MS/MS method
Assay type: ADME, cell-based
Conditions: read-out: Stability
Measured remaining at 16 h, 10 µM values are reported for all entries that follow.
MEASURED_ATTRIBUTE: remaining at 16 h, 10 µM (%)

ENTRY_SMILES | REPORTED_MEASUREMENT
O=C(Nc1cccc(F)c1)c1cc(S(=O)(=O)N2CCOCC2)c(Cl)cc1Cl | 79.7
O=C(Nc1cc(F)c(Cl)c(F)c1)c1cc(S(=O)(=O)N2CCOCC2)c(Cl)cc1Cl | 101
O=S(=O)(c1cc(C(=S)Nc2cc(F)c(F)c(F)c2)c(Cl)cc1Cl)N1CCOCC1 | 93.2

====

Measured pIC50 values are reported for all entries that follow.
Biological target: Lysophosphatidic acid receptor 1 (Homo sapiens, UniProt Q92633)
Sequence (Q92633 whole entry): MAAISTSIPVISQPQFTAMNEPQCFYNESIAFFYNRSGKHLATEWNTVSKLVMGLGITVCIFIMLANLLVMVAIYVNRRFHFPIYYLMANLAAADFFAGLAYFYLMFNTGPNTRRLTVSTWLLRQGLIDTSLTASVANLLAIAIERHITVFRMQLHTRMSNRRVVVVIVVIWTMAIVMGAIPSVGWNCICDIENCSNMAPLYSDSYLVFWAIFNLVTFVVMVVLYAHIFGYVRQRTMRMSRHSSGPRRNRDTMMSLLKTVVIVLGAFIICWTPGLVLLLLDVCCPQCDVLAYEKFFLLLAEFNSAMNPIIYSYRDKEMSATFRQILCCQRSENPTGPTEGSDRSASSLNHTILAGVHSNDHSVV
Assay: Antagonist activity at LPA1 receptor (unknown origin) expressed in rat RH7777 cells assessed as inhibition of LPA-induced intracellular calcium level measured every 3.42 secs for 70 secs by Fura-2-AM dye based fluorescence assay
Assay type: functional, cell-based
Settings: read-out: IC50
pIC50: −log10 of the molar value.
MEASURED_ATTRIBUTE: pIC50

ENTRY_SMILES | REPORTED_MEASUREMENT
O=C(Nc1cc(F)c(Cl)c(F)c1)c1cc(S(=O)(=O)N2CCOCC2)c(Cl)cc1Cl | 5.21 to 5.22
O=C(Nc1cc(Cl)c(F)c(Cl)c1)c1cc(S(=O)(=O)N2CCOCC2)c(Cl)cc1Cl | 4.74
O=C(Nc1cc(F)c(F)c(F)c1)c1cc(S(=O)(=O)N2CCOCC2)c(Cl)cc1Cl | 4.84 to 4.85
